All values here come from the supplement of paper PMC9112550.

# Tested on: Escherichia coli TOP10;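 note: peptides expressed intracellularly from a pBAD plasmid library in pooled LB shake-flask culture, induced with 0.3% L-arabinose, DNA abundance read by NGS, three biological replicates, DESeq2 with apeglm shrinkage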
# test.description: shrunken log2 fold change of peptide-encoding DNA abundance (4.5 h post-induction vs induction); higher = less antimicrobial activity (less host growth inhibition)
# stated.conditions: time post-induction: 4.5 h; library: site-saturation at positions 5, 18, 19, 20
Measured shrunken log2 fold change of individual entries
// no unit, no text: just the number

Here's what some known entries look like.
Inquiry: Answer with the recorded shrunken log2 fold change for the sequence listed here: RRIRVRPPRLPRPRPRPRAKPRP
Reply text: 0.16

Inquiry: Answer with the recorded shrunken log2 fold change for the sequence listed here: RRIRMRPPRLPRPRPRPLNRPRP
Reply text: 0.0437

Inquiry: Answer with the recorded shrunken log2 fold change for the sequence listed here: RRIRMRPPRLPRPRPRPKARPRP
Reply text: 1.61

---
Inquiry: Answer with the recorded shrunken log2 fold change for the sequence listed here: RRIRARPPRLPRPRPRPNEDPRP
Reply text: 0.334

Inquiry: Answer with the recorded shrunken log2 fold change for the sequence listed here: RRIRYRPPRLPRPRPRPWKVPRP
Reply text: -0.498

Inquiry: Answer with the recorded shrunken log2 fold change for the sequence listed here: RRIRRRPPRLPRPRPRPFMKPRP
Reply text: -0.213

Inquiry: Answer with the recorded shrunken log2 fold change for the sequence listed here: RRIRSRPPRLPRPRPRPAMPPRP
Reply text: 0.206

Inquiry: Answer with the recorded shrunken log2 fold change for the sequence listed here: RRIRIRPPRLPRPRPRPWCHPRP
Reply text: -0.122

Inquiry: Answer with the recorded shrunken log2 fold change for the sequence listed here: RRIRLRPPRLPRPRPRPPGPPRP
Reply text: 0.359

Inquiry: Answer with the recorded shrunken log2 fold change for the sequence listed here: RRIRMRPPRLPRPRPRPWYAPRP
Reply text: -0.475

Inquiry: Answer with the recorded shrunken log2 fold change for the sequence listed here: RRIRKRPPRLPRPRPRPKEPPRP
Reply text: 0.074

Inquiry: Answer with the recorded shrunken log2 fold change for the sequence listed here: RRIRRRPPRLPRPRPRPKYRPRP
Reply text: -0.000605

Inquiry: Answer with the recorded shrunken log2 fold change for the sequence listed here: RRIRKRPPRLPRPRPRPYDQPRP
Reply text: 0.0359

Inquiry: Answer with the recorded shrunken log2 fold change for the sequence listed here: RRIRKRPPRLPRPRPRPLSTPRP
Reply text: 0.025

Inquiry: Answer with the recorded shrunken log2 fold change for the sequence listed here: RRIRGRPPRLPRPRPRPNTAPRP
Reply text: 0.543

Inquiry: Answer with the recorded shrunken log2 fold change for the sequence listed here: RRIRQRPPRLPRPRPRPMVKPRP
Reply text: 0.0691

Inquiry: Answer with the recorded shrunken log2 fold change for the sequence listed here: RRIRARPPRLPRPRPRPRLFPRP
Reply text: 0.465

Inquiry: Answer with the recorded shrunken log2 fold change for the sequence listed here: RRIRMRPPRLPRPRPRPPMMPRP
Reply text: 0.609
